tested on: INS1; test: beta cell apoptosis inhibitors, cytokine rescue, dose response, luminescence, retest (AID 449756); assay type: functional, cell-based; details: Rattus norvegicus;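 also: cell death triggered by IL-1 beta plus TNF-alpha plus IFN-gamma mixture; protective hits raise ATP signal compared with cytokine alone wells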
The source made the active and inactive calls.
Labels: true (1) for active, false (0) for inactive

O=C(COc1ccc(Cl)cc1)Nc1ccc(C(=O)NCc2cccnc2)cc1 ... true (1)
C=CCn1c(SCN2C(=O)c3ccccc3C2=O)nc2ccc(Cl)cc2c1=O ... true (1)
Oc1[nH]c2ccccc2c1N=NC(=S)N1CCOCC1 ... true (1)
S=C(Nc1ccc(Cl)cc1)Nc1cccc2cnccc12 ... false (0)
CC(=O)c1c(C)[nH]c(C(=O)OCC(=O)Nc2ccc(Cl)cc2[N+](=O)[O-])c1C ... true (1)

====

molecular target: Replicative DNA helicase DnaB (Mycobacterium tuberculosis); assay: DnaB intein splicing inhibitors, dose response, biochemical, cell-free fluorescence (AID 449749); type: functional
Activity calls are given as the source filed them.
Possible outcomes: active, inactive

Nc1ccc(N2CCOCC2)c2nonc12 ... active
CS(=O)(=O)c1nc(-c2ccccc2)cc(C(F)(F)F)n1 ... active
CCCC1C(C#N)=C(N)Oc2[nH]nc(C(C)(C)C)c21 (centres undefined) ... active
Nc1ccc(O)c2c1C(=O)c1ccccc1C2=O ... active
CC(OC(=O)c1cc(O)c2ccccc2c1O)C(=O)Nc1ccc(C(N)=O)cc1 (centres undefined) ... active
COc1ccc(C2C(C#N)=C(N)Oc3[nH]nc(C)c32)cc1Cn1cc([N+](=O)[O-])cn1 (centres undefined) ... active
N#CC(C#N)=NNc1ccc(S(=O)(=O)N2CCCCC2)cc1 ... active
N#CC1=C(N)Oc2[nH]nc(-c3ccccc3)c2C1c1cccc(OC(=O)N2CCOCC2)c1 (centres undefined) ... active
CC(C)(C)c1[nH]nc2c1C(Cc1ccccc1)C(C#N)=C(N)O2 (centres undefined) ... active
O=[N+]([O-])c1cc(-c2ccc(C(=S)N3CCOCC3)o2)ccc1Cl ... active
Oc1[nH]c2ccccc2c1N=NC(=S)N1CCOCC1 ... inactive
COc1ccccc1NC(=O)c1cnc(SCC(=O)NCC2CCCO2)n(C)c1=O (centres undefined) ... active
CCOc1cc(C(c2c(C)n[nH]c2O)c2c(C)n[nH]c2O)cc(Cl)c1O ... inactive
COc1cccc(-c2[nH]nc3c2C(c2ccc(C)o2)C(C#N)=C(N)O3)c1 (centres undefined) ... active

====

biological target: Dual specificity protein phosphatase 6 (Rattus norvegicus); type: functional;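 also: confirmatory in vitro dose-response testing of MKP-3 inhibition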;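 also: recombinant His-tagged MKP-3 made in E. coli BL21 with OMFP substrate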
Sequence (Q64346 whole entry): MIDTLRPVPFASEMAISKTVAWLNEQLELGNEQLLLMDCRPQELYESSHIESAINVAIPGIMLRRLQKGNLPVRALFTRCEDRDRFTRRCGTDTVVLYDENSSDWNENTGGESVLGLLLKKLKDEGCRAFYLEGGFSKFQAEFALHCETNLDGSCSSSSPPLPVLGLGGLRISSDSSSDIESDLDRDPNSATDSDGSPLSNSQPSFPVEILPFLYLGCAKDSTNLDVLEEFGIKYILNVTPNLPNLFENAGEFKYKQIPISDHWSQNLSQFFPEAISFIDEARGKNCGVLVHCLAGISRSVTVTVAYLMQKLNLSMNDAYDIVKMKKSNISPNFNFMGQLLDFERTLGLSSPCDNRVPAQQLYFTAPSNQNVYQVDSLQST
The source made the active and inactive calls.
Possible outcomes: y (active), n (inactive)

O=C(O)C1Nc2c(I)cccc2C2C=CCC12 (centres undefined) ... n
Cc1cc(OCC(=O)O)ccc1S(C)(=O)=O ... n
Cc1cc2nc3s/c(=C/c4ccc(-c5ccccc5C(=O)O)o4)c(=O)n3c2cc1C ... y
O=C(O)C1Nc2c(cccc2N2CCOCC2)C2C=CCC12 (centres undefined) ... y

====

target: Luciferin 4-monooxygenase (Photinus pyralis, UniProt P08659); assay: firefly luciferase enzyme inhibitors, dose response, biochemical, luminescence (AID 1891)
Sequence (P08659 whole entry): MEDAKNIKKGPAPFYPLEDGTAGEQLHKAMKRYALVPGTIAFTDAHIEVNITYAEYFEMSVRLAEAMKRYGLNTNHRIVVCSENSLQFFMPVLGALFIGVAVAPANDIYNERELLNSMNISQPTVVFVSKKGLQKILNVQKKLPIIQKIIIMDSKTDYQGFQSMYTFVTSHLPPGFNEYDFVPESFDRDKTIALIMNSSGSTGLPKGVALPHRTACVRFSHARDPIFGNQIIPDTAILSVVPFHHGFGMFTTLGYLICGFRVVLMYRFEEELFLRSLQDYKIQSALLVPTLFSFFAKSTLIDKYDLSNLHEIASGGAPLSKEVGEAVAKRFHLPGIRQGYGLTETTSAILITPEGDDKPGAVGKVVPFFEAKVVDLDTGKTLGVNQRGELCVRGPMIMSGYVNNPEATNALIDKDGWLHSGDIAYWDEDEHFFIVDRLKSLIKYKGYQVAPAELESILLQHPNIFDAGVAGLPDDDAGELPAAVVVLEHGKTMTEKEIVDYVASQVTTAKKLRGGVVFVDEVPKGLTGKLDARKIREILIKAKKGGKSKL
Activity calls are given as the source filed them.
Documented EC50 across a set of molecules
reported_metric: EC50

Cc1cc(=O)n2nc(N3CCCC(C(=O)NCc4ccccc4)C3)sc2n1 (configuration not stated) ... > 112 µM (not active)
O=C(COc1cccc(OC(F)F)c1)Nc1ccc(SC(F)F)cc1 ... > 112 µM (not active)
O=C(CCCN1C(=O)/C(=C/c2ccccc2Cl)SC1=S)NNC(=O)c1ccc(Cl)cc1Cl ... > 112 µM (not active)
COc1cccc(C2c3c(-c4cc(Cl)c(C)cc4O)n[nH]c3C(=O)N2Cc2cccnc2)c1 (configuration not stated) ... > 112 µM (not active)
CCc1ccc(C(=O)Nc2cccc(-c3nn[nH]n3)c2)s1 ... 3.49 µM (active)
COC(=O)c1[nH]c2cc(OC)ccc2c1NC(=O)CN1CCOCC1 ... > 112 µM (not active)
Cc1cccc(C(=N)NOC(=O)c2ccoc2C)c1 ... 3.65 µM (active)

====

target: Estrogen receptor beta (Homo sapiens); test: ERβ–SRC-3 coactivator interaction inhibitors, confirmation, orthogonal assay, biochemical, ELISA, streptavidin-HRP readout (AID 1060)
Sequence (Q92731 whole entry): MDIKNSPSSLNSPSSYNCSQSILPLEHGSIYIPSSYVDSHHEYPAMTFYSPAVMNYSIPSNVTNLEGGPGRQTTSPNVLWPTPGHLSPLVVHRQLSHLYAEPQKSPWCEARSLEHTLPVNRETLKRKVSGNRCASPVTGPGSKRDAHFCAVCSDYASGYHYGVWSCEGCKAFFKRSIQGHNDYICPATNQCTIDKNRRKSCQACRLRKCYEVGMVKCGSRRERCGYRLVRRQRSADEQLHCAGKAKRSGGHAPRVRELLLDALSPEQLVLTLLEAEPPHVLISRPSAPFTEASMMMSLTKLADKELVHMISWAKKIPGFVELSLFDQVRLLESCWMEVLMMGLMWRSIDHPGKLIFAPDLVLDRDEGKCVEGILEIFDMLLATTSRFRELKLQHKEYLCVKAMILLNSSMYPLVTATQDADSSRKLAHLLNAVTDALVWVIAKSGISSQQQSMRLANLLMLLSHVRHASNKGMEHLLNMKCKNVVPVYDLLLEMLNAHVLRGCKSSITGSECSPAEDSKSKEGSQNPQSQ
reported_metric: IC50

COc1cc(C2Nc3cccc4cccc(c34)N2)cc(OC)c1O ... 5.04 µM (not active)
Nc1c(C(=O)Nc2ccc(F)cc2)sc2nc(-c3ccco3)ccc12 ... > 50 µM (not active)
COc1ccc(C2CC(=O)Nc3ccccc3S2(=O)=O)cc1OC (centres undefined) ... < 0.023 µM (not active)
COC(=O)c1ccc(NC(=O)CSc2nc(C)cc(=O)[nH]2)cc1 ... > 50 µM (not active)

====

Recorded IC50 for the following molecules
biological target: Calpain-2 catalytic subunit (Sus scrofa); assay: pig calpain II inhibitor potency, dose response, biochemical, fluorogenic peptide substrate (AID 1420); type: functional
Sequence (P43367 whole entry): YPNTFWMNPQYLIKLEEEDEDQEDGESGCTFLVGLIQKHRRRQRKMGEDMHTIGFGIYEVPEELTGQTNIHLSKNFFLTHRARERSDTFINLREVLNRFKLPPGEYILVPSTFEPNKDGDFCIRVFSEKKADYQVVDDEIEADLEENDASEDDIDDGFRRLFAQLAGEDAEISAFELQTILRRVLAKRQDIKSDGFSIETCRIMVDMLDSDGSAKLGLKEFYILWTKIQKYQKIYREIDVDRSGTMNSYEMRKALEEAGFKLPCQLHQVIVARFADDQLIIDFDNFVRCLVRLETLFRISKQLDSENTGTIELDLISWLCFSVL
The source made the active and inactive calls.
reported_metric: IC50

COc1cccc(NC(=O)CC2SC(Nc3ccccc3)=NC2=O)c1 (centres undefined) ... > 50 µM (not active)
COc1cc(/C=C2/SC(=O)NC2=O)ccc1Oc1ccc([N+](=O)[O-])cc1[N+](=O)[O-] ... 7.36 µM (not active)
Cc1csc2ncnc(N3CCN(C(=O)Nc4ccc(OC(F)(F)F)cc4)CC3)c12 ... 6.79 µM (not active)
COc1cc(Br)cc(CNc2ccc(F)c([N+](=O)[O-])c2)c1O ... 2.79 µM (active)

====

IC50 overview
target: Prothrombin (Homo sapiens, UniProt P00734); assay: Thrombin 1536 HTS Dose Response Confirmation. [Related pubchem assays: 1046 (Thrombin 1536 HTS; hits were confirmed in this assay)]; type: functional
The source made the active and inactive calls.
reported_metric: IC50

Cc1ccc(Cl)cc1NS(=O)(=O)c1c(C)[nH]c(=O)[nH]c1=O ... > 50 µM (not active)
COCC(=O)n1nc(-c2ccccc2)nc1NCc1cccs1 ... 0.467 µM (active)
NC(=O)c1c(NC(=O)Cn2nc(C(=O)O)c3ccccc3c2=O)sc2c1CCCC2 ... 24.3 µM (active)
Cc1ccc(C(=O)NC(C)C(c2cccs2)N2CCCC2)s1 (stereo not given) ... > 50 µM (not active)
CS(=O)(=O)Nc1cccc(C(=O)CC2(O)C(=O)Nc3ccc(Br)cc32)c1 (stereo not given) ... 0.525 µM (active)

====

target: DNA repair protein RAD52 homolog (Homo sapiens, UniProt P43351); assay type: functional, biochemical
Sequence (P43351 whole entry): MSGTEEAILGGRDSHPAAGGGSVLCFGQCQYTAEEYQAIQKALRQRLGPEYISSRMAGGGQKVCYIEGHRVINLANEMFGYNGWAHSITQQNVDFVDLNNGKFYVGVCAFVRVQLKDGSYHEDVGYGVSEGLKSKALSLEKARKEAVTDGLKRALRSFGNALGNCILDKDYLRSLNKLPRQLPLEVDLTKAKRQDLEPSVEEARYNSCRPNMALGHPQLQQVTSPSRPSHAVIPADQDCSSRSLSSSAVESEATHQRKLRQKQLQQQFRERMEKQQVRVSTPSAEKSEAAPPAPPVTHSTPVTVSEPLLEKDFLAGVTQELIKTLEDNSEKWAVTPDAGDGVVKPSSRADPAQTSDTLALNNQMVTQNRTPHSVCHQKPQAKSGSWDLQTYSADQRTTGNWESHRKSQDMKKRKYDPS
Activity calls are given as the source filed them.
Consider the following compounds and their measured AC50 readings.
reported_metric: AC50

CN1CCN(c2ccc(NC(=O)c3ccc(-c4cccc([N+](=O)[O-])c4)o3)cc2)CC1 ... 10.3 µM (active)
CC(=O)N(CCN(C)C)c1nc2cc3c(cc2s1)OCCO3 ... 11.4 µM (active)
COc1ccc(-c2cc3nc(NCCCN(C)C)n(C)c(=O)c3s2)c(C)c1 ... 29.3 µM (active)
CCN(CCCl)c1cc(CN(C)C)cc(NC(=O)c2ccc(C(=O)Nc3cc(CN(C)C)cc(N(CC)CCCl)c3)cc2)c1 ... 1.71 µM (active)
COc1ccc(-c2nn(C)c3sc(C(=O)NCCN(C)C)cc23)cc1OC ... 2.35 µM (active)
CC[C@H](C)Cc1cn([C@@H](CCCCN)C(=O)NCCCCCCCCCCC(=O)N2CCNCC2)nn1 ... 13.2 µM (active)
Cc1cccn2c(=O)c3cc(C(=O)NCCN4CCOCC4)c(=N)n(CCCN4CCOCC4)c3nc12 ... 4.63 µM (active)
COc1cccc(-c2cnc3c(NC(C)=O)cc(-c4cccc(C(=O)NCCN(C)C)c4)cn23)c1 ... 2.42 µM (active)

====

Reported IC50 values are given for each entry in this list.
test system: H9c2; test: cells; assay type: functional, cell-based; details: Rattus norvegicus, H9c2, Myocardium;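 also: cell death induced by hydrogen peroxide oxidative stress; compound pretreatment for 60 min then peroxide exposure for 2 h; potency is for protecting the cells against peroxide damage rather than for killing them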;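 also: confirmatory concentration-response retest of ultra-high-throughput screening hits for modulation of myocardial damage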
Activity calls are given as the source filed them.
reported_metric: IC50

COCCN1CCN(c2c3c(nc4cc(-c5cccc(F)c5)nn24)CCC3)CC1 ... 6.93 µM (active)
COc1cc(Nc2nc3ccccc3n3nnnc23)cc(OC)c1OC ... > 79 µM (inactive)
NC(=O)c1cc2ccccc2o/c1=N\NC(=O)c1ccc(F)cc1 ... > 79 µM (inactive)
CCCn1c(=O)c(C(=O)Nc2ccccc2)c(O)c2ccccc21 ... 9.48 µM (active)

====

Form field: AC50 (one value per entry).
Biological target: Cytochrome P450 1A2 (Homo sapiens);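 also: PubChem cytochrome P450 panel assay, CYP1A2 panel member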
Sequence (P05177 whole entry): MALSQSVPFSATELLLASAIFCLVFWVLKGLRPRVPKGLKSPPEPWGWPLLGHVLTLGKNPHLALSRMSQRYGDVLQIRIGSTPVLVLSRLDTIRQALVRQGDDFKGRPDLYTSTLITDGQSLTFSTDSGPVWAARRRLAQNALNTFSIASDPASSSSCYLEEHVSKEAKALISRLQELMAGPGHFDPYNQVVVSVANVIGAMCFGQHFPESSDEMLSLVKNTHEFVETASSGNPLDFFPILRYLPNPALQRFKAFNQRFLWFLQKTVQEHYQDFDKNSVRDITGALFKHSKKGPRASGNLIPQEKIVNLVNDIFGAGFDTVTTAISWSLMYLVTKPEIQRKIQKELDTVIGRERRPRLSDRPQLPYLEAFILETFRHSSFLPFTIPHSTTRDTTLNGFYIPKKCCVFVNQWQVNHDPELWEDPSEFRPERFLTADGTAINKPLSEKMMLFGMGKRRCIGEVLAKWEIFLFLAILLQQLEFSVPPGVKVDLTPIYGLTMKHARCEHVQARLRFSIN
reported_metric: AC50

O=C(OC1CCN(CCCl)CC1)C(c1ccccc1)c1ccccc1 ... 12.6 µM (inconclusive)
CC(C)=CCNc1ncnc2nc[nH]c12 ... 6.31 µM (inconclusive)
CCOC(=O)Cc1csc(NC(=S)NC(=O)c2ccc(F)cc2)n1 ... 1.12 µM (inconclusive)
O=C(Nc1ccccc1)c1cc(-n2cnnc2)ccc1Cl ... 12.6 µM (inconclusive)
OCCn1cnc2c(SCc3ccccc3)ncnc21 ... 3.16 µM (inconclusive)
O=C(NNC(=O)c1ccccc1-n1cccc1)c1ccc(Cl)c(Cl)c1 ... 25.1 µM (inconclusive)

Taken from ChEMBL document CHEMBL1201862.
